# Ki per entry
SYSTEM_NAME: UniProt Q2KIM0
Sequence (Q2KIM0 whole entry): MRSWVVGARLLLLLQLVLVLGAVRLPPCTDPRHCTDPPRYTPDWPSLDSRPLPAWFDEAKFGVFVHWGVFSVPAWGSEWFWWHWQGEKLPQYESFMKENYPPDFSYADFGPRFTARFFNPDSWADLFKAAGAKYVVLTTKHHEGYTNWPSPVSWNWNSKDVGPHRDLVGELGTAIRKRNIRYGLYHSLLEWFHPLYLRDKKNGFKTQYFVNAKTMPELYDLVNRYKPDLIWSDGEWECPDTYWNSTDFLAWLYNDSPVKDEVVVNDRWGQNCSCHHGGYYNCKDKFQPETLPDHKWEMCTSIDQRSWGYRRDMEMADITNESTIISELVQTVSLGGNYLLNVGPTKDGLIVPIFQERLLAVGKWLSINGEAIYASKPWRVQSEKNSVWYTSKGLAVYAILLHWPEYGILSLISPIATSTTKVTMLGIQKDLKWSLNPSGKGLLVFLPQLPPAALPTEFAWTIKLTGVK
REPORTED_PROPERTY: Ki

In [3]: df
Out[3]:
                               smiles_entry  result
0  C[C@H]1O[C@H](OC[C@H]2NC[C@@H](O)[C@@H](O)[C@@H]2O)[C@@H](O)[C@@H](O)[C@@H]1O   60 nM
1  C[C@@H]1N[C@H](CO)[C@@H](O)[C@H](O)[C@@H]1O  5.3 nM

Provenance of the data: ChEMBL document CHEMBL1148104
